molecular target: Schistosoma mansoni thioredoxin glutathione reductase (TGR); assay: qHTS Assay for the Inhibitors of Schistosoma Mansoni Peroxiredoxins; settings: purified TGR, DTNB reduction, TNB absorbance 405 nm; series mostly up to 114 µM; note: nearly all actives have a fitted effect of over 60% in size
Screen size: about 360,000 compounds; about 11,000 (3.1%) were called active. Roughly 4% stayed inconclusive and do not appear here. Calls come from the whole dose curve; as a rule, active = well fitted inhibition curve with a large enough effect; inconclusive = small, poorly fitted or top-dose-only effect; inactive = no such curve, though single readings can be large or run the other way. The list comes from a sample in which actives are over-represented; it also holds close analogues and randomly drawn compounds.
API: response.call in 1 = active, -1 = inactive

{"Molecule smiles": "O=C(c1ccc(Cl)cc1)n1nc(-c2cccnc2)nc1NCc1ccc(F)cc1", "Label": -1}

Task item: Please state the recorded outcome for this compound: `O=C(c1ccc2c(c1)N(Cc1ccccc1F)C(=O)c1ccccc1S2(=O)=O)N1CCOCC1`
Reply: -1

Task item: Also, `O=C(CCl)N(Cc1cccc([N+](=O)[O-])c1)c1cccc(Cl)c1` please.
Reply: 1

Task item: Also, `COC(=O)c1cc(C(=O)N(Cc2ccccc2)c2ccccn2)cc([N+](=O)[O-])c1` please.
Reply: -1

Task item: Also, `Cc1c(NC(=S)NCc2ccc(F)cc2)cccc1[N+](=O)[O-]` please.
Reply: -1

Task item: Also, `CC(=O)N(C1=C(Cl)C(=O)c2ccccc2C1=O)c1ccc(C(=O)O)cc1` please.
Reply: 1

Task item: Also, `O=C(O)c1ccc(Nc2nc(-c3ccccc3)c3cc(Br)ccc3n2)cc1` please.
Reply: -1

Task item: Also, `Cc1c(NC(=O)CCCOc2ccccc2)cccc1[N+](=O)[O-]` please.
Reply: -1

Task item: Also, `CC(C)(C)NC(=O)CSc1nc(-c2ccc(F)cc2)cc(C(F)(F)F)n1` please.
Reply: -1

Task item: Also, `COc1cccc(-n2cc(C(=O)NCc3cccc(Cl)c3)c3ccccc3c2=O)c1` please.
Reply: -1
